Experiment: Individual serum elimination rate and half-life (linear regression per employee)
Conditions: individual estimate, subject 14, 4 samples
# TRUE = Elimination rate below 0.6 yearly (exclusive); FALSE = Elimination rate at/above 0.6 yearly

COMPOUND	DISCRETE_LABEL
O=S(=O)(O)C(F)(C(F)(F)F)C(F)(F)C(F)(F)C(F)(F)C(F)(F)C(F)(F)C(F)(F)F (stereo not drawn) [1m-PFOS, perfluoro-1-methylheptanesulfonate]	FALSE
O=C(O)C(F)(F)C(F)(F)C(F)(F)C(F)(F)C(F)(F)C(F)(F)F [PFHpA, perfluoroheptanoic acid]	FALSE
O=S(=O)(O)C(F)(F)C(F)(F)C(F)(F)C(F)(F)C(F)(F)F [PFPeS, perfluoropentane sulfonic acid]	FALSE
O=S(=O)(O)C(F)(F)C(F)(F)C(F)(F)C(F)(F)C(F)(F)C(F)(F)C(F)(F)F [PFHpS, perfluoroheptane sulfonic acid]	FALSE
O=C(O)C(F)(F)C(F)(F)C(F)(F)C(F)(F)C(F)(F)F [PFHxA, perfluorohexanoic acid]	TRUE
O=S(=O)(O)C(F)(F)C(F)(F)C(F)(F)C(F)(F)C(F)(F)C(F)(F)C(F)(F)C(F)(F)F [L-PFOS, linear perfluorooctane sulfonic acid]	TRUE
O=S(=O)(O)C(F)(F)C(F)(F)C(F)(F)C(F)(F)F [PFBS, perfluorobutane sulfonic acid]	FALSE
O=C(O)C(F)(F)C(F)(F)C(F)(F)C(F)(F)C(F)(F)C(F)(F)C(F)(F)F [PFOA, perfluorooctanoic acid]	TRUE

###

Assay: Individual serum elimination rate and half-life (linear regression per employee)
Conditions: human, serum, oral, HL (half-life), individual estimate, subject 9, 5 samples
Description: Serum PFAS concentrations were log-transformed. Time was calculated as the elapsed days between supply of clean bottled water and […] blood sampling. We assumed one compartment, first-order elimination kinetics. […] Method 2: For estimation of individual k, linear regression was used to derive the slope ( β ) of the logarithm of serum concentrations vs. time for each employee. […] If β was positive (i.e., PFAS concentrations tended to increase over the five samplings), the half-life was not calculated.
Measured half-life of individual entries
PROPERTY: half-life (days)

In [3]: df
Out[3]:
                           structure_smiles  value_unit  value_reported
0  O=C(O)C(F)(F)C(F)(F)C(F)(F)C(F)(F)C(F)(F)C(F)(F)C(F)(F)F        days             694
1  O=C(O)C(F)(F)C(F)(F)C(F)(F)C(F)(F)C(F)(F)C(F)(F)F        days            36.5

###

Assay: PFAS levels in urine samples of airport employees, specific-gravity adjusted (LC/MS/MS)
Type: in vivo, human
Conditions: 3rd sampling (November, 2018), count 16
PROPERTY: Specific gravity adjusted urinary level, Min

In [3]: df
Out[3]:
                                   molecule  value_reported
0  O=C(O)C(F)(F)C(F)(F)C(F)(F)C(F)(F)C(F)(F)C(F)(F)F [PFHpA, perfluoroheptanoic acid]           < LOD
1  O=C(O)C(F)(F)C(F)(F)C(F)(F)C(F)(F)C(F)(F)C(F)(F)C(F)(F)F [PFOA, perfluorooctanoic acid]      0.01 ng/mL
2  O=S(=O)(O)C(F)(F)C(F)(F)C(F)(F)C(F)(F)C(F)(F)C(F)(F)F [PFHxS, perfluorohexane sulfonic acid]      0.03 ng/mL
3  O=S(=O)(O)C(F)(F)C(F)(F)C(F)(F)C(F)(F)C(F)(F)F [PFPeS, perfluoropentane sulfonic acid]      0.02 ng/mL
4  O=S(=O)(O)C(F)(F)C(F)(F)C(F)(F)C(F)(F)C(F)(F)C(F)(F)C(F)(F)C(F)(F)F [L-PFOS, linear perfluorooctane sulfonic acid]           < LOD

src = paper PMC7351026
